targetUnderTest: Beta-3 adrenergic receptor (Homo sapiens)
Sequence (P13945 whole entry): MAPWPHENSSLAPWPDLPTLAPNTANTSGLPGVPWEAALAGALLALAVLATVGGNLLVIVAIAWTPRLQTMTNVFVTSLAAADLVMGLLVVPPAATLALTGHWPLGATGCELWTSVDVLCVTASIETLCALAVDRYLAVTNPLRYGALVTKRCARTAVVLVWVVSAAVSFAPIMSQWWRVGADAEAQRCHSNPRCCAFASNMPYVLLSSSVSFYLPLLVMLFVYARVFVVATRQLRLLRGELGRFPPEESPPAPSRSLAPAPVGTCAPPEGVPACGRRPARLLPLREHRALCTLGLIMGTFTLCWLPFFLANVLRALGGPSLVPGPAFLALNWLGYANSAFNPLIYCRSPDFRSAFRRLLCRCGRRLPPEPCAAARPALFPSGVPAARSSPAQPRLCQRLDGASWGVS
experimentalProtocol: Ability to cause cAMP accumulation in CHO cells expressing human beta-3 AR expressed as the negative logarithm of the molar drug concentration
Format: functional, cell-based
Property: EC50; scope: individual compounds
Supply the numeric figure in nM, leaving out any unit text.

Worked cases, EC50 given:
I have this compound here, "Cc1ccc(CNC(=O)Cc2ccc(NC[C@@H](C)NC[C@H](O)c3cccc(Cl)c3)cc2)cc1" , and I need its recorded EC50.
63.1

I have this compound here, "Cc1ccc(S(=O)(=O)NCCc2ccc(NC[C@@H](C)NC[C@H](O)c3cccc(Cl)c3)cc2)cc1" , and I need its recorded EC50.
20

I have this compound here, "C[C@H](CNc1ccc(CCS(=O)(=O)NC(=O)c2ccccc2)cc1)NC[C@H](O)c1cccc(Cl)c1" , and I need its recorded EC50.
10

With those in mind, consider the next compound.
I have this compound here, "C[C@H](CNc1cccc(CNC(=O)NS(=O)(=O)c2ccccc2)c1)NC[C@H](O)c1cccc(Cl)c1" , and I need its recorded EC50.
15.8

====

experimentalProtocol: plasma concentration at the 2.5 hour time
Assay type: ADME
assaySetup: read-out: C
endpointLabel: concentration at 2.5 h (ng/mL)
Supply the numeric figure in ng/mL, leaving out any unit text.

I have this compound here, "Cc1ccc(S(=O)(=O)NC(=O)Cc2ccc(NC[C@@H](C)NC[C@H](O)c3cccc(Cl)c3)cc2)cc1" , and I need its recorded concentration at 2.5 h.
42.1

---
I have this compound here, "Cc1ccc(S(=O)(=O)NC(=O)Cc2cccc(NC[C@@H](C)NC[C@H](O)c3cccc(Cl)c3)c2)cc1" , and I need its recorded concentration at 2.5 h.
10.3

====

targetUnderTest: Beta-1 adrenergic receptor (Homo sapiens)
Sequence (P08588 whole entry): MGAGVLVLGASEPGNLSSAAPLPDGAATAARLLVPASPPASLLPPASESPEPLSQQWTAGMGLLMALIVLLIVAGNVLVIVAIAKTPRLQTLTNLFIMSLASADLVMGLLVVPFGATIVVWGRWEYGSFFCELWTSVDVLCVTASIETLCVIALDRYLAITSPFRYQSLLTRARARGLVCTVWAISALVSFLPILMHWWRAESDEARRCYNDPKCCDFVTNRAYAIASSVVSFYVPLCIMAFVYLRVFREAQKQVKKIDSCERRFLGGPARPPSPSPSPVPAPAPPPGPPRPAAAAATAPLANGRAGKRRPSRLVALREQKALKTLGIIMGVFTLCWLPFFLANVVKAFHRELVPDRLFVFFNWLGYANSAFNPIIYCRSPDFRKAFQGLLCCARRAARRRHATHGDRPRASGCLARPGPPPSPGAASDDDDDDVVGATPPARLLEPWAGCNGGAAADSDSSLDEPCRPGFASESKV
experimentalProtocol: Ability to cause cAMP accumulation in CHO cells expressing human beta-1 AR expressed as the negative logarithm of the molar drug concentration
Assay type: functional, cell-based
So basically, if EC50 comes in under 8 nM it's Condition met, and if it's 8 nM or more it's Condition not met.

Recorded results for 6 molecules are shown here.
Regarding "C[C@H](CNc1cccc(CC(=O)O)c1)NC[C@H](O)c1cccc(Cl)c1" , kindly confirm whether its EC50 is beneath 8 nM.
Condition not met

Regarding "Cc1ccc(CNC(=O)Cc2ccc(NC[C@@H](C)NC[C@H](O)c3cccc(Cl)c3)cc2)cc1" , kindly confirm whether its EC50 is beneath 8 nM.
Condition not met

Regarding "C[C@H](CNc1ccc(CC(=O)NS(=O)(=O)c2ccccc2)cc1)NC[C@H](O)c1cccc(Cl)c1" , kindly confirm whether its EC50 is beneath 8 nM.
Condition not met

Regarding "Cc1ccc(S(=O)(=O)NC(=O)Cc2ccc(NC[C@@H](C)NC[C@H](O)c3cccc(Cl)c3)cc2)cc1" , kindly confirm whether its EC50 is beneath 8 nM.
Condition not met

Regarding "C[C@H](CNc1ccc(C(=O)O)cc1)NC[C@H](O)c1cccc(Cl)c1" , kindly confirm whether its EC50 is beneath 8 nM.
Condition not met

Regarding "C[C@H](CNc1ccc(CCC(=O)O)cc1)NC[C@H](O)c1cccc(Cl)c1" , kindly confirm whether its EC50 is beneath 8 nM.
Condition not met

Query molecule follows.
Regarding "C[C@H](CNc1ccc(CC(=O)NS(C)(=O)=O)cc1)NC[C@H](O)c1cccc(Cl)c1" , kindly confirm whether its EC50 is beneath 8 nM.
Condition not met
